- System: HeLa proliferation, XTT absorbance
- MEASUREMENT_PROTOCOL: antiproliferative effect on HeLa control cancer cells – cell-based, XTT absorbance, selectivity assay for AHD inhibitor project, dose response (AID 1794806)
Calls of active or inactive are those of the source.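 How the source made its calls: active means EC50 under 50 µM in a live-cell viability test; inactive means the rest.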
Reported EC50 by item:

[[record]]
smiles_str = "O=C(NCC1CCNCC1)c1coc2cc(-c3ccc(N4CCCCC4)cc3)ccc12"
target_or_system = "HeLa proliferation, XTT absorbance"
endpoint_label = "EC50"
assay_result = "50 µM"

[[record]]
smiles_str = "O=C(NCC1CCNCC1)c1cc2cc(-c3ccc(N4CCCCC4)cc3)ccc2s1"
target_or_system = "HeLa proliferation, XTT absorbance"
endpoint_label = "EC50"
assay_result = "25 µM"


// next entry
# EC50 (compound: O=C(NCC1CCNCC1)c1cc2cc(-c3cn[nH]c3)ccc2[nH]1 ) is > 51 µM (inactive)
